B1: scFv; the commonest letter at each place (parent)
chain 1: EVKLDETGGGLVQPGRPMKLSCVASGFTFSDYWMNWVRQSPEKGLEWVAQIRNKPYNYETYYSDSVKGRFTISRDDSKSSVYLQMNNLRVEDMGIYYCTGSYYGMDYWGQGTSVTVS
chain 2: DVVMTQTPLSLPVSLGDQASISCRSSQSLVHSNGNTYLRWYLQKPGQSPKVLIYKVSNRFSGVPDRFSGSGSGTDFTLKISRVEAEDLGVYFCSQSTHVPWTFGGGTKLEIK

Variants of: B1
test-name: yeast surface expression (ratio to wild type); higher = more expressed
assay-conditions: format: scFv 4-4-20, heavy + light
The class of a record is decided solely by its measured yeast surface expression; consult low: < 0.8; middle: ≥ 0.8 and < 1; high: ≥ 1

Previously resolved entries follow.
mut: chain 1 G100I W108M
label: middle
--
mut: chain 1 M105Q
label: high
--
mut: chain 1 W36H V37E
label: low
--
mut: chain 1 Y102D D106T
label: high

Please let me know in which category the item chain 1 S30P V37S belongs.
low

Class (by measured yeast surface expression) for chain 1 S30D M34F
high
